test system: Streptococcus sp.; test: in vitro antibacterial evaluation, MIC by broth dilution; type: cell-based; details: Streptococcus agalactiae (GC 4564); broth dilution, 18 hours at 35° C.
experimentalEndpoint: MIC Streptococcus agalactiae (GC 4564) (µg/mL)
Your answer should be a plain number; it is taken to be in µg/mL.

compound | testedOn | MIC Streptococcus agalactiae (GC 4564), µg/mL
CC(c1ccccc1)C1NC(=O)CNC(=O)C(CO)NC(=O)C(C(O)C2CNC(=N)N2C2OC(CO)C(O)C(O)C2O)NC(=O)C(C(O)C2CNC(=N)N2)NC(=O)C(Cc2ccc(OC3OC(CO)C(OC4OC5COC(CC6CCCCC6)OC5C(O)C4O)C(O)C3O)cc2)NC1=O (stereo not shown) [Example 122] | Streptococcus sp. | 0.12
CC(c1ccccc1)C1NC(=O)CNC(=O)C(CO)NC(=O)C(C(O)C2CNC(=N)N2C2OC(CO)C(O)C(O)C2O)NC(=O)C(C(O)C2CNC(=N)N2)NC(=O)C(Cc2ccc(OC3OC(CO)C(OC4OC5COC(c6cccc(Cl)c6)OC5C(O)C4O)C(O)C3O)cc2)NC1=O (stereo not shown) [Example 138] | Streptococcus sp. | 0.12
CC(C)=CCCC1OCC2OC(OC3C(CO)OC(Oc4ccc(CC5NC(=O)C(C(C)c6ccccc6)NC(=O)CNC(=O)C(CO)NC(=O)C(C(O)C6CNC(=N)N6C6OC(CO)C(O)C(O)C6O)NC(=O)C(C(O)C6CNC(=N)N6)NC5=O)cc4)C(O)C3O)C(O)C(O)C2O1 (stereo not shown) [Example 123] | Streptococcus sp. | 2

Moving on to another compound below.
Data request: I have this compound here, CC(C)=CCCC(C)C1OCC2OC(OC3C(CO)OC(Oc4ccc(CC5NC(=O)C(C(C)c6ccccc6)NC(=O)CNC(=O)C(CO)NC(=O)C(C(O)C6CNC(=N)N6C6OC(CO)C(O)C(O)C6O)NC(=O)C(C(O)C6CNC(=N)N6)NC5=O)cc4)C(O)C3O)C(O)C(O)C2O1 (stereo not shown) [Example 125] , and I need its recorded MIC Streptococcus agalactiae (GC 4564).
Data returned: 1

Values compiled from patent US6914045B2.
